Assay Remarks: Metabolic stability in human HaCaT cells assessed as parent compound remaining at 5 uM incubated for 120 mins
Property Name: remaining at 2 h, 5 µM

As a guide, the following entries are already answered.
CCCCC/C=C\C/C=C\C/C=C\C/C=C\CCCC(=O)OCC(=O)NCCO = > 99%
CC(C)=CCC/C(C)=C/C(=O)OCC(=O)NCCO = 98%
CCCCCCCCCCCC(=O)OCC(=O)NC1CC1 = 94%

With those in mind, consider the next compound.
### Prompt Can you share its remaining at 2 h, 5 µM? I mean this compound: CCCCCCCC(=O)OCC(=O)NCCc1cc(O)c(O)cc1I
### Response 73%

---

Assay Remarks: Metabolic stability in human Keratinocytes assessed as parent compound remaining at 5 uM incubated for 120 mins
Overview of recorded remaining at 2 h, 5 µM for various compounds

CCCCCCCC(=O)OCC(=O)NCCc1cc(O)c(O)cc1I = 85%

### Prompt Can you share its remaining at 2 h, 5 µM? I mean this compound: CC(C)=CCC/C(C)=C/C(=O)OCC(=O)NCCO
### Response 96%

### Prompt Can you share its remaining at 2 h, 5 µM? I mean this compound: CCCCCCCCCCCC(=O)OCC(=O)NC1CC1
### Response 99%

### Prompt Can you share its remaining at 2 h, 5 µM? I mean this compound: CCCCC/C=C\C/C=C\C/C=C\C/C=C\CCCC(=O)OCC(=O)NCCO
### Response 97%

---

Assay Remarks: Metabolic stability in human skin S9 fraction assessed as parent compound remaining at 5 uM incubated for 60 mins
Overview of recorded remaining at 1 h, 5 µM for various molecules
Form entry: value (%) — number only.

CCCCC/C=C\C/C=C\C/C=C\C/C=C\CCCC(=O)OCC(=O)NCCO = 76
CCCCCCCCCCCC(=O)OCC(=O)NC1CC1 = 69
CC(C)=CCC/C(C)=C/C(=O)OCC(=O)NCCO = 96

With those in mind, consider the next molecule.
### Prompt Can you share its remaining at 1 h, 5 µM? I mean this molecule: CCCCCCCC(=O)OCC(=O)NCCc1cc(O)c(O)cc1I
### Response 27

Reference for the values: ChEMBL document CHEMBL6071163
